# System: Moraxella catarrhalis
# assay: MIC, standard broth dilution method in microtitre
# Assay type: cell-based
recorded.metric: MIC

[ask] MIC for CC[C@H]1OC(=O)[C@H](C)[C@@H](O[C@H]2C[C@@](C)(OC)[C@H](NC(=O)CCOCCOCCCc3ccc4c(c3)c(=O)c(C(=O)O)cn4CC)[C@H](C)O2)[C@H](C)[C@@H](O[C@@H]2O[C@H](C)C[C@H](N(C)C)[C@H]2O)[C@](C)(O)C[C@@H](C)CN(C)[C@H](C)[C@@H](O)[C@]1(C)O (single isomer, unassigned) ?
[reply] ≤ 2 µg/mL
